Assay: Odor threshold and odor value of perfuming compounds (Tables 4 to 10)
Conditions: Table 8, perfuming compounds having a sweet note
Measured Odor Value, listed per entry for reference.
test_readout: Odor Value

[[record]]
compound = "CC1=CC[C@H](C(C)CC2CCCC2=O)CC1 (some centres unmarked)"
numeric_result = "1.24E+04"

[[record]]
compound = "CCCCCCCC1CCCC(=O)O1 (racemic) [(+−)-6-heptyltetrahydro-2H-pyran-2-one]"
numeric_result = "7.06E+03"

[[record]]
compound = "COc1cc(C)ccc1O"
numeric_result = "4.41E+05"

[[record]]
compound = "C=C(C)CC(C)OC(=O)C(C)C (racemic)"
numeric_result = "4.39E+04"

[[record]]
compound = "C/C=C/c1ccc(OC)cc1 [1-methoxy-4-[(1E)-1-propen-1-yl]benzene]"
numeric_result = "1.51E+05"

[[record]]
compound = "COc1cc(C=O)ccc1OC(=O)C(C)C"
numeric_result = "1.38E+04"

[[record]]
compound = "C/C=C/C(=O)[C@@H]1[C@@H](C)C=CCC1(C)C (racemic)"
numeric_result = "8.44E+06"

[[record]]
compound = "CCC(CC(C)CC)=NO (centres unmarked)"
numeric_result = "1.45E+04"

[[record]]
compound = "CC(C)(C)C(=O)OCCc1ccccc1 [2-PHENYLETHYL PIVALATE]"
numeric_result = "1.86E+03"

[[record]]
compound = "SCc1ccco1"
numeric_result = "2.08E+13"

[[record]]
compound = "CC(=O)OCCc1ccccc1 [2-PHENYLETHYL ACETATE]"
numeric_result = "9.38E+04"

[[record]]
compound = "COc1cccc(OC)c1O"
numeric_result = "2.40E+06"

[[record]]
compound = "CCCC=C1OC(=O)c2ccccc21 [3-BUTYLIDENE-1-BENZO[C]FURANONE]"
numeric_result = "1.66E+04"

[[record]]
compound = "CCCCC1CCCC(=O)O1 (centres unmarked) [5-NONANOLIDE]"
numeric_result = "2.06E+06"

[[record]]
compound = "C=CCOC(=O)CCCCCC [ALLYL HEPTANOATE]"
numeric_result = "7.06E+04"

[[record]]
compound = "CCCCCCCC1CCC(=O)O1 (racemic) [(+−)-5-heptyldihydro-2(3H)-furanone]"
numeric_result = "1.16E+05"

[[record]]
compound = "O=C(Cc1ccccc1)OCCc1ccccc1 [2-PHENYLETHYL PHENYLACETATE]"
numeric_result = "2.24E+02"

[[record]]
compound = "C/C=C/C(=O)C1C(C)=CCCC1(C)C (racemic)"
numeric_result = "1.06E+06"

[[record]]
compound = "CCCCCC(=O)OCC [ETHYL HEXANOATE]"
numeric_result = "1.06E+07"

[[record]]
compound = "COC(=O)Cc1ccccc1 [METHYL PHENYLACETATE]"
numeric_result = "1.73E+06"

[[record]]
compound = "C=CCOC(=O)CCC1CCCCC1 [ALLYL 3-CYCLOHEXYLPROPANOATE]"
numeric_result = "9.53E+03"

[[record]]
compound = "CCCCCC1CCCC1=O (racemic) [(+−)-2-pentylcyclopentanone]"
numeric_result = "4.38E+05"

[[record]]
compound = "CC(=O)OCCC1CCCCC1 [2-CYCLOHEXYL ETHYL ACETATE]"
numeric_result = "1.09E+04"

